Test system: A549
METHOD_NOTES: Antiproliferative activity against human A549 cells after 48 hrs by MTT assay relative to control
Type: functional, cell-based
PROTOCOL_CONDITIONS: A549, 48 h
PARAMETER: IC50 (nM)
The answer is to be given in nM; state only the numeric part.

{"columns": ["COMPOUND", "IC50 / nM"],
 "data": [
  ["COc1ccc(C2CC(c3cccc(Oc4cc(O/N=[N+](\\[O-])N5CCCCC5)c([N+](=O)[O-])cc4[N+](=O)[O-])c3)=NN2C(C)=O)cc1OC (centres undefined)", 1020],
  ["COc1ccc(C2CC(c3cccc(Oc4cc(O/N=[N+](\\[O-])N5CCOCC5)c([N+](=O)[O-])cc4[N+](=O)[O-])c3)=NN2C(C)=O)cc1OC (centres undefined)", 1540],
  ["Cc1ccc(/C=C/C(=O)c2cccc(Oc3cc(O/N=[N+](\\[O-])N4CCCCC4)c([N+](=O)[O-])cc3[N+](=O)[O-])c2)cc1", 5660],
  ["CC(=O)N1N=C(c2cccc(Oc3cc(O/N=[N+](\\[O-])N4CCCCC4)c([N+](=O)[O-])cc3[N+](=O)[O-])c2)CC1c1ccc(C)cc1 (centres undefined)", 7310],
  ["CC(=O)N1N=C(c2cccc(Oc3cc(O/N=[N+](\\[O-])N4CCOCC4)c([N+](=O)[O-])cc3[N+](=O)[O-])c2)CC1c1ccc(N(C)C)cc1 (centres undefined)", 1970],
  ["Cc1ccc(/C=C/C(=O)c2cccc(Oc3cc(O/N=[N+](\\[O-])N4CCOCC4)c([N+](=O)[O-])cc3[N+](=O)[O-])c2)cc1", 3150],
  ["CCCCOc1ccc(C2CC(c3cccc(Oc4cc(O/N=[N+](\\[O-])N5CCCCC5)c([N+](=O)[O-])cc4[N+](=O)[O-])c3)=NN2C(C)=O)cc1OC (centres undefined)", 6940],
  ["CCCCOc1ccc(C2CC(c3cccc(Oc4cc(O/N=[N+](\\[O-])N5CCOCC5)c([N+](=O)[O-])cc4[N+](=O)[O-])c3)=NN2C(C)=O)cc1OC (centres undefined)", 1460]
]}

Input line: Return IC50 for the following compound: COc1cc(C2CC(c3cccc(Oc4cc(O/N=[N+](\[O-])N5CCCCC5)c([N+](=O)[O-])cc4[N+](=O)[O-])c3)=NN2C(C)=O)cc(OC)c1OC (centres undefined)
Output line: 1150

###

Tested on: A549
METHOD_NOTES: Antiproliferative activity against human A549 cells after 48 hrs by MTT assay relative to control
Format: functional, cell-based
PROTOCOL_CONDITIONS: A549, 48 h
PARAMETER: IC50 (µM)
Provide the reading as a plain figure in µM.

Check out these entries, answers already filled in.
{"columns": ["MOLECULE", "MEASURED"],
 "data": [
  ["COc1ccc(C2CC(c3cccc(Oc4cc(O/N=[N+](\\[O-])N5CCCCC5)c([N+](=O)[O-])cc4[N+](=O)[O-])c3)=NN2C(C)=O)cc1 (stereo unspecified)", 4.7],
  ["COc1cc(/C=C/C(=O)c2cccc(Oc3cc(O/N=[N+](\\[O-])N4CCCCC4)c([N+](=O)[O-])cc3[N+](=O)[O-])c2)cc(OC)c1OC", 4.65],
  ["COc1ccc(/C=C/C(=O)c2cccc(Oc3cc(O/N=[N+](\\[O-])N4CCOCC4)c([N+](=O)[O-])cc3[N+](=O)[O-])c2)cc1OC", 5.99],
  ["COc1ccc(/C=C/C(=O)c2cccc(Oc3cc(O/N=[N+](\\[O-])N4CCOCC4)c([N+](=O)[O-])cc3[N+](=O)[O-])c2)cc1", 5.9],
  ["CC(=O)N1N=C(c2cccc(Oc3cc(O/N=[N+](\\[O-])N4CCCCC4)c([N+](=O)[O-])cc3[N+](=O)[O-])c2)CC1c1ccc(N(C)C)cc1 (stereo unspecified)", 7.66]
]}

Now for another entry.
Input line: Give recorded IC50. CC(=O)N1N=C(c2cccc(Oc3cc(O/N=[N+](\[O-])N4CCOCC4)c([N+](=O)[O-])cc3[N+](=O)[O-])c2)CC1c1ccc(C)cc1 (stereo unspecified)
Output line: 1.87

###

METHOD_NOTES: Selectivity ratio of IC50 for human MCF10A cells to IC50 for human MDA-MB-231 cells
Type: toxicity
PROTOCOL_CONDITIONS: MCF10A cells versus MDA-MB-231 cells, read-out: Ratio IC50
// label = T if selectivity ratio is not less than 10, otherwise F

Consider the following illustrative entries.
{"columns": ["COMPOUND", "CLASSIFICATION"],
 "data": [
  ["COc1ccc(/C=C/C(=O)c2cccc(Oc3cc(O/N=[N+](\\[O-])N4CCCCC4)c([N+](=O)[O-])cc3[N+](=O)[O-])c2)cc1", "T"],
  ["COc1ccc(C2CC(c3cccc(Oc4cc(O/N=[N+](\\[O-])N5CCCCC5)c([N+](=O)[O-])cc4[N+](=O)[O-])c3)=NN2C(C)=O)cc1OC (stereo not drawn)", "T"]
]}

Input line: State whether the measured selectivity ratio reaches 10, counting equality as reaching it, for "Cc1ccc(/C=C/C(=O)c2cccc(Oc3cc(O/N=[N+](\[O-])N4CCOCC4)c([N+](=O)[O-])cc3[N+](=O)[O-])c2)cc1"
Output line: T

Input line: Reported selectivity ratio at or above 10? CC(=O)N1N=C(c2cccc(Oc3cc(O/N=[N+](\[O-])N4CCCCC4)c([N+](=O)[O-])cc3[N+](=O)[O-])c2)CC1c1ccc(C)cc1 (stereo not drawn)
Output line: T

###

METHOD_NOTES: Cytotoxicity against ADR-sensitive human MCF7 cells assessed as inhibition of cell viability at 10 uM after 48 hrs by MTT assay relative to control
Assay type: cell-based
PROTOCOL_CONDITIONS: read-out: INH
Flag rule - cytotoxicity at 48 h, 10 µM less than 20% flags condition met; the remaining entries get condition not met.

{"columns": ["COMPOUND", "CLASSIFICATION"],
 "data": [
  ["COc1cc(/C=C/C(=O)c2cccc(Oc3cc(O/N=[N+](\\[O-])N4CCCCC4)c([N+](=O)[O-])cc3[N+](=O)[O-])c2)cc(OC)c1OC", "condition met"]
]}

Input line: Strictly below 20% in cytotoxicity at 48 h, 10 µM? COc1ccc(C2CC(c3cccc(Oc4cc(O/N=[N+](\[O-])N5CCCCC5)c([N+](=O)[O-])cc4[N+](=O)[O-])c3)=NN2C(C)=O)cc1OC (centres undefined)
Output line: condition met

Input line: Could you please tell me whether cytotoxicity at 48 h, 10 µM recorded for CCCCCOc1ccc(C2CC(c3cccc(Oc4cc(O/N=[N+](\[O-])N5CCOCC5)c([N+](=O)[O-])cc4[N+](=O)[O-])c3)=NN2C(C)=O)cc1OC (centres undefined) is less than 20%?
Output line: condition not met

Input line: Bench note: check whether "COc1ccc(/C=C/C(=O)c2cccc(Oc3cc(O/N=[N+](\[O-])N4CCOCC4)c([N+](=O)[O-])cc3[N+](=O)[O-])c2)cc1" shows cytotoxicity at 48 h, 10 µM below 20%
Output line: condition met

Input line: Please let me know if CCCCOc1ccc(C2CC(c3cccc(Oc4cc(O/N=[N+](\[O-])N5CCOCC5)c([N+](=O)[O-])cc4[N+](=O)[O-])c3)=NN2C(C)=O)cc1OC (centres undefined) shows cytotoxicity at 48 h, 10 µM below 20%.
Output line: condition not met

Input line: Just wondering, is cytotoxicity at 48 h, 10 µM of "COc1ccc(/C=C/C(=O)c2cccc(Oc3cc(O/N=[N+](\[O-])N4CCCCC4)c([N+](=O)[O-])cc3[N+](=O)[O-])c2)cc1OC" below 20%?
Output line: condition met

Input line: Could you please tell me whether cytotoxicity at 48 h, 10 µM recorded for "COc1ccc(/C=C/C(=O)c2cccc(Oc3cc(O/N=[N+](\[O-])N4CCOCC4)c([N+](=O)[O-])cc3[N+](=O)[O-])c2)cc1OC" is less than 20%?
Output line: condition met

Input line: Consider COc1cc(C2CC(c3cccc(Oc4cc(O/N=[N+](\[O-])N5CCOCC5)c([N+](=O)[O-])cc4[N+](=O)[O-])c3)=NN2C(C)=O)cc(OC)c1OC (centres undefined) . Does its cytotoxicity at 48 h, 10 µM lie strictly below 20%?
Output line: condition met

Input line: I wonder whether "Cc1ccc(/C=C/C(=O)c2cccc(Oc3cc(O/N=[N+](\[O-])N4CCOCC4)c([N+](=O)[O-])cc3[N+](=O)[O-])c2)cc1" has cytotoxicity at 48 h, 10 µM below 20%. Can you tell?
Output line: condition not met

Input line: cytotoxicity at 48 h, 10 µM strictly < 20% for this compound? COc1cc(C2CC(c3cccc(Oc4cc(O/N=[N+](\[O-])N5CCCCC5)c([N+](=O)[O-])cc4[N+](=O)[O-])c3)=NN2C(C)=O)cc(OC)c1OC (centres undefined)
Output line: condition not met

Input line: Given the entry COc1ccc(C2CC(c3cccc(Oc4cc(O/N=[N+](\[O-])N5CCOCC5)c([N+](=O)[O-])cc4[N+](=O)[O-])c3)=NN2C(C)=O)cc1OC (centres undefined) , would its reported cytotoxicity at 48 h, 10 µM be below 20%?
Output line: condition met

Input line: Item "COc1cc(/C=C/C(=O)c2cccc(Oc3cc(O/N=[N+](\[O-])N4CCOCC4)c([N+](=O)[O-])cc3[N+](=O)[O-])c2)cc(OC)c1OC" : cytotoxicity at 48 h, 10 µM beneath 20%, strictly?
Output line: condition not met

Input line: Lab note: cytotoxicity at 48 h, 10 µM threshold 20%. Does this compound come in strictly under it? COc1ccc(C2CC(c3cccc(Oc4cc(O/N=[N+](\[O-])N5CCOCC5)c([N+](=O)[O-])cc4[N+](=O)[O-])c3)=NN2C(C)=O)cc1 (centres undefined)
Output line: condition not met

Input line: Quick check: does "Cc1ccc(/C=C/C(=O)c2cccc(Oc3cc(O/N=[N+](\[O-])N4CCCCC4)c([N+](=O)[O-])cc3[N+](=O)[O-])c2)cc1" have cytotoxicity at 48 h, 10 µM under 20%?
Output line: condition met
